Just for reference, paper PMC5540273 is where these values come from.

test system: EPHA4; conditions: concentration: 1 μM,replicates: in singlicate; n = 1;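 also: KINOMEscan kinase panel screen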
Threshold 20%. %Inh below it: Y. %Inh at it or above: N.

Ask | Below 20% on %Inh? Entry Cc1ccn2nc(-c3ccc(F)cc3)c(-c3ccncc3)c2c1.Cl
Reply | Y

Ask | Try COc1cc2ncn(-c3cc(OCC4CCCCC4)c(C(N)=O)s3)c2cc1OC next.
Reply | Y

Ask | Another compound: CCNCC(Cc1ccccc1)NC(=O)c1cc(Br)c(-c2ccnc3[nH]ccc23)s1.Cl.Cl (centres unmarked)
Reply | Y

Ask | Same question, Cn1ccc2ncnc(Oc3ccc(NC(=O)Nc4cc(C(C)(C)C)on4)c(Cl)c3)c21 this time
Reply | N

Ask | Can you check Cl.Cl.NC[C@H](CC1CCCCC1)NC(=O)c1ccc(-c2ccnc3[nH]ccc23)s1 next?
Reply | Y

Ask | Can you check Cn1ccc2ncnc(Oc3ccc(NC(=O)Nc4ccnc(C(F)(F)F)c4)c(Cl)c3)c21 next?
Reply | N

Ask | Record: C[C@@H](Oc1cc(-n2cnc3cc(-c4ccncc4)ccc32)sc1C(N)=O)c1ccccc1Cl
Reply | N

---

system: PIP5K2C; construct: gene PIP4K2C; details: concentration: 1 μM,replicates: in singlicate; n = 1
Quantity name: %Inh

Ask | Param readout = %Inh; param system = PIP5K2C; param query = Cc1ccc(Nc2ccnc(Nc3ccc4c(c3)CS(=O)(=O)C4)n2)cc1O.Cl ; response: value
Reply | 90%

Ask | Also, Cl.Cl.NC[C@H](CC1CCCCC1)NC(=O)c1ccc(-c2ccnc3[nH]ccc23)s1 please.
Reply | 25%

Ask | Subsequent entry: COc1cccc(CNC(=O)NC2CCN(c3ccnc(Nc4cc(OC)c(OC)c(OC)c4)n3)C2)c1 (centres unmarked)
Reply | 90.3%

Ask | Also COc1cccc(OC)c1C(=O)Nc1cccc(-c2nn3ccccc3c2-c2ccnc(Nc3cccc(F)c3)n2)c1 ?
Reply | 0%

Ask | What do you get for COc1cc2ncn(-c3cc(OCC4CCCCC4)c(C(N)=O)s3)c2cc1OC ?
Reply | 11%

Ask | Repeat for the following compound: CC(C(=O)NC1CCN(c2ccnc(Nc3ccc(F)cc3)n2)C1)c1ccc(Cl)cc1 (centres unmarked)
Reply | 4%

Ask | Ok, now O=C(Nc1ccc(Oc2ccc3nc(NC(=O)C4CC4)cn3n2)c(F)c1)c1cccn(-c2ccccc2)c1=O
Reply | 76%

Ask | Same read-out for CC(=O)Nc1ccc(-c2cc3ncnc(SCC(=O)O)c3s2)cc1 ?
Reply | 46%

Ask | Item: Cc1ccc(CC(=O)N2CCc3cc(-c4cn(C)c5ncnc(N)c45)ccc32)cc1
Reply | 17%

Ask | One more compound: COC(=O)c1cccc(NC(=O)NC2CCN(c3ccnc(NCc4ccc(F)cc4)n3)CC2)c1
Reply | 2%

Ask | Next compound up: COc1ccc(Nc2nccc(N3CCC(NC(=O)c4cccc(C#N)c4)C3)n2)cc1 (centres unmarked)
Reply | 23%

Ask | # repeat for Cn1ccc2ncnc(Oc3ccc(NC(=O)Nc4ccnc(C(F)(F)F)c4)c(Cl)c3)c21
Reply | 0%

Ask | Queued: N#Cc1cccc(C(=O)NC2CCN(c3ccnc(Nc4ccc(F)cc4)n3)C2)c1 (centres unmarked)
Reply | 21%

Ask | What about this compound? Cl.c1ccc(Oc2ccc(Nc3ccnc4cc(-c5ccc(CN6CCNCC6)o5)ccc34)cc2)nc1
Reply | 23%

Ask | Likewise for CCn1c(-c2nonc2N)nc2cncc(Br)c21 ?
Reply | 38%

Ask | Further, for CCOC(=O)N1CCC(n2cnc(-c3ccc(F)cc3)c2-c2ccnc(N)n2)CC1 ?
Reply | 94.4%

Ask | Now give it for CN(c1cccc(CNc2nc(Nc3ccc4c(c3)CC(=O)N4)ncc2C(F)(F)F)c1)S(C)(=O)=O too.
Reply | 46%

Ask | Same lookup for CS(=O)(=O)c1cccc(CNc2nc(Nc3ccc4c(c3)[C@@H]3C[C@@H]4CNC3=O)ncc2C(F)(F)F)c1 , please.
Reply | 52%

Ask | Subsequent entry: Cn1ccc2ncnc(Oc3ccc(NC(=O)Nc4cccc(C(F)(F)F)c4)c(F)c3)c21
Reply | 0%

Ask | Can you check Cn1ccc2ncnc(Oc3ccc(NC(=O)Nc4cc(C(C)(C)C)on4)c(Cl)c3)c21 next?
Reply | 0%

Ask | Subsequent entry: NC(=O)Nc1sc(-c2ccc(F)cc2)cc1C(N)=O
Reply | 28%

Ask | Next up: COC(=O)Nc1nc2cc(Oc3ccc(NC(=O)Nc4cc(C(F)(F)F)ccc4Cl)cc3)ccc2[nH]1.Cl
Reply | 53%

Ask | Next entry: Cn1ccc2ncnc(Oc3ccc(NC(=O)Nc4cncc(C(F)(F)F)c4)c(Cl)c3)c21
Reply | 0%

Ask | Field entry: COc1cc2c(Nc3ccc(NC(=O)c4ccccc4)cc3)ncnc2cc1OCCCN1CCOCC1
Reply | 0%

Ask | What do we get for Cc1ccn2nc(-c3ccc(F)cc3)c(-c3ccncc3)c2c1.Cl ?
Reply | 26%

Ask | Then what about the compound O=C(NOCC1CC1)c1cc(Br)c(F)c(F)c1Nc1ccc(I)cc1Cl ?
Reply | 36%

Ask | Would you mind doing CCNCC(Cc1ccccc1)NC(=O)c1cc(Br)c(-c2ccnc3[nH]ccc23)s1.Cl.Cl (centres unmarked) as well?
Reply | 36%

Ask | Ok, now Cc1nnc(-c2ccc3occ(-c4ccc(S(C)=O)cc4)c3n2)o1 (centres unmarked)
Reply | 43%

Ask | How about Cn1cc(-c2cccc3c(N)c(C(N)=O)nnc23)cn1 ?
Reply | 7%

Ask | Next compound up: CNC(=O)c1ccccc1Nc1nc(Nc2cccc(CS(C)(=O)=O)c2)ncc1C.O=CO
Reply | 79%

Ask | Cool, now CC(=O)Nc1nc2cnc(Nc3cc(NC(=O)c4cccc(CC(C)(C)C#N)c4)ccc3C)nc2s1
Reply | 53%

Ask | Query Nc1nccc(-c2ccc3c(N)n[nH]c3c2)n1 next
Reply | 10%

Ask | CC(C)c1nc(-c2cccc(NS(=O)(=O)c3ccccc3)c2)c(-c2ccnc(Nc3ccc4c(c3)CN(C)CC4)n2)s1 ?
Reply | 65%

Ask | Another compound to look at: CCCC(=O)Nc1n[nH]c2ncccc12
Reply | 0%

Ask | Now the compound CN(c1ccccc1CNc1nc(Nc2ccc3c(c2)CC(=O)N3)ncc1C(F)(F)F)S(C)(=O)=O
Reply | 9%
